Below are Ki values measured for human A2AR (Homo sapiens, UniProt P29274).
metric: Ki (µM)

compound: COc1ccc(C(=O)Nc2cccc(-c3nc4c([nH]3)c(=O)n(C)c(=O)n4C)c2)cc1OC [PX-D-M5]
assay_target: human A2AR (Homo sapiens, UniProt P29274)
Sequence (P29274 whole entry): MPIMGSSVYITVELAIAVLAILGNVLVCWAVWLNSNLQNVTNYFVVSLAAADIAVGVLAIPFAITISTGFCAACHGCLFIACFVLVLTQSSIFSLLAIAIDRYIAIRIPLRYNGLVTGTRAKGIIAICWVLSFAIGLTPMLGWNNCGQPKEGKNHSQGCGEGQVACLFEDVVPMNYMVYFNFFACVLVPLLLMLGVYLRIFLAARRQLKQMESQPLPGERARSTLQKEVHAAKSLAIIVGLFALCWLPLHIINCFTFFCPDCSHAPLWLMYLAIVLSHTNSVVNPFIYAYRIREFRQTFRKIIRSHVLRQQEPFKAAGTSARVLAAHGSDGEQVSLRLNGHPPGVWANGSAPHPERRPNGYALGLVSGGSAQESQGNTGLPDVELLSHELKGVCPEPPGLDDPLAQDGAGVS
observed_value: 4.99
//
compound: Cn1c(=O)c2c(nc(-c3ccc(NC(=O)/C=C/c4cccc(Cl)c4)cc3)n2C)n(C)c1=O [PX-E-P8]
assay_target: human A2AR (Homo sapiens, UniProt P29274)
observed_value: 0.85
//
compound: Cn1c(=O)c2[nH]c(-c3ccc(NC(=O)/C=C/c4cccc(Cl)c4)cc3)nc2n(C)c1=O [PX-E-P4]
assay_target: human A2AR (Homo sapiens, UniProt P29274)
observed_value: 6.43
//
compound: COc1ccc(C(=O)Nc2ccc(-c3nc4c(c(=O)n(C)c(=O)n4C)n3C)cc2)cc1OC [PX-D-P10]
assay_target: human A2AR (Homo sapiens, UniProt P29274)
observed_value: 1.34
//
compound: Cn1c(=O)c2[nH]c(-c3ccc(NC(=O)c4cccc(Cl)c4)cc3)nc2n(C)c1=O [PX-D-P4]
assay_target: human A2AR (Homo sapiens, UniProt P29274)
observed_value: 1.52
